What folding stability dG unfold was measured for each of the following?
- assay method text: folding stability dG unfold from trypsin proteolysis; higher = more stable
Your answer should be a plain number; it is taken to be in kcal/mol.

// folding stability dG unfold lookup, key: SAGGSAGGPEIKVLEVRKLPDGSFEFIVEVPPGDAEKIKSGTVVKIKFGDKEYDVTVEVIPTEGSAGGSAGG [r6_372_TrMRF]
1.73

Now the same for SAGGSAGGSAGPVVISIPETNTLVVLAPLPDDRVLADVFQFDPTTPEPTVFTVPAENISFSAGGSAGGSAGG [r11_285_TrMRF]
0.76

Again, but for SAGGMKIKTKSGKELTLKKIKLKYKNKEYEIENLKIKAIKYDPKKKIVHIEVTHPNGKKYTFDLKIKSAGGS [r8_215_TrMRF]
1.69

Now consider SAGGSAGGSIKIPPGQMIHIRYEHGGKKREYSFTIDPNDGKIDEIIPPDNLPGYKIEEIHIVPSAGGSAGGS [r12_6_TrROS] .
-0.431

SAGGIVPLPNGHWVIMAQFEVDEGQTVDDAPEFAREIAKTFGIKPTQVQVDPEKGYVNVAIKIPPGALSAGG [r13_178_TrROS] ?
0.217

Please give the result for SAGGSAGGSAEVEIKVRPDDPIPPNLPIVLPDGKERDARVEAVLDPEDGTPVFKVYFDPRSDSAGGSAGGSA [r18_476_TrMRF] too.
0.771

And SAGMLEISSDVLKALGIPVGATAEEVKERIQRRLEELGFEVEIPSVVIEELDPETGRVGVRIDLDLRPPSAG [r5_23_TrMRF] ?
3.05

Would you kindly repeat that for SAGGSAGGSAGGSGDPNNPVTLLVLDVPSPEPAGTVYYFPDGYVAVNFPSINRTLVFYGSAGGSAGGSAGGS [r4_78_TrMRF] ?
0.766

And for SAIRGLPPEEIEKAVKKLAKEGNVEIEIKPFTMRVYPPDGGQQPYQYYQIEIYNPDNGKPIEDKIKKLFSAG [r14_628_TrROS] ?
0.167

Also check SAGLAAAIAAAGAIAEALGVTVRVEVFRDGELVGTFEIPAPVGDGEPVSLEVRLPDPEVTVRFELRIPGSAG [r14_728_TrMRF]
2.26

What do you get for SAGDMIKIPFNFKDPNGAKPKELEVMISPDPGVITAMFKYKHNNEPKYYMISIPIDPGNGKIEIEIQPMSAG [r5_136_TrROS] ?
1.2

# iterate: GPSPVSVSTSTSTSLSTVGNTPVLVTTTTTTTTTLSPDPTDPSVTTTTTTTTTTTTVYDPANGKPLSTTTSS [r1_406_JUSTAS]
1.83

// repeat for SMKIEVEKLEDGTYVITIEDPGEDDIPVTYKAVVFVDPETGKVYVDRNIEDPNVPPELKELFENFIPGIESA [r9_715_TrMRF] and report
2.5

Follow-up entry: SAGGSAGGSMTKTITTKTEEEAESEARRLLKEEGVPEGVEPTPITLESVDPEKGLYTFTVELESAGGSAGGS [r12_999_JUSTAS]
0.2

Record: SAGGSVEKKLLEYDPATGNRLVEVTAKAKPEVVEELIAKGYDPSTISPLGDGTVRALLTIPPDEKLDSAGGS [r16_755_JUSTAS]
-0.295

Same thing, different sequence: SAGGGLGADALAKKFKELFPNAKVEKLPNGKVLFYIPETGKLIEIYDLDDEQIIKIIDPNTPKVYIISAGGS [r16_478_TrMRF]
1.68

Please answer likewise for SAGGKLTELIRSLFEKLNVPLEPLETGPNSAIFRFPGKPGVFELPGNSRIVIFEDGLVVVVAPPNDLSAGGS [r8_297_TrMRF]
1.51

Do the same for SAGGSAGGSAGKTYTLTITTENGKTITLPKDVEVVYDEKTGYLYIKNKKTNKVIKVKLKDSAGGSAGGSAGG [r17_432_TrROS_Hall] please
2.13

Another: SAGGSAGGSKPGEVYEVKVKIKDKETGKYYEVKVKVYRLEDGTLLIEVDGKIFEVPVKDIEIESAGGSAGGS [r12_790_TrROS_Hall]
3.25

One more sequence: SAGGSAGGSAGDDGSDLPVVDLKVSISPFVRPLPNGEEVTVWKVLVENPGSSSRSEFYFGSAGGSAGGSAGG [r17_59_TrMRF]
0.337

Now give it for SAGMEPTTITVDVTIPPEVFARLSEEELKEKVLAELGIPESLPVEVEISRKEVKLDGKTVYVVPMTIVGSAG [r14_334_JUSTAS] too.
0.117

Try SAGGSAGGSMRLDLDDIKRVEREPTPNGMRVYEIKLKGHKLPIRYHDNKIEISPEFKDLLKDISAGGSAGGS [r20_92_TrROS] next.
-0.382

Likewise for SAGGSAGGSAMKTIEIDIVIKNKETGEYYKAKAKIFENEDGSLIIEIEFEKNGKTLLIVLPPSAGGSAGGSA [r18_426_TrROS_Hall] ?
3.31

Same question, SAGGGMMWTVTFYPKETDTPITFPVPKEYITEIDEENNKIVIKKPPGETIEITDFNKIKSIEITPLPSAGGS [r8_111_JUSTAS] this time
0.541

Try SAGGSAGGSELPDGPALVVLPINSKPVVALAKVNSTGKIEVYIPNPGKKFTFDLDQAEVYPVLSAGGSAGGS [r12_782_TrMRF] next.
-0.1

Param item: SVVTLEQVAELVEKGVELVAVLPDNRLLFYDPEREEPIELEVEEVPPPKPIFIEGGVESLEEALKFLEAESA [r9_649_TrMRF]
0.456

# repeat for SSPKILTESELKITIPMTDPETGKPINLEVTIPLLVDPATGTVEVLEIKITGPEEVQEILKKLIEKLIKESA [r9_619_JUSTAS]
2.14
